Target: Monocarboxylate transporter 4 (Homo sapiens)
Sequence (O15427 whole entry): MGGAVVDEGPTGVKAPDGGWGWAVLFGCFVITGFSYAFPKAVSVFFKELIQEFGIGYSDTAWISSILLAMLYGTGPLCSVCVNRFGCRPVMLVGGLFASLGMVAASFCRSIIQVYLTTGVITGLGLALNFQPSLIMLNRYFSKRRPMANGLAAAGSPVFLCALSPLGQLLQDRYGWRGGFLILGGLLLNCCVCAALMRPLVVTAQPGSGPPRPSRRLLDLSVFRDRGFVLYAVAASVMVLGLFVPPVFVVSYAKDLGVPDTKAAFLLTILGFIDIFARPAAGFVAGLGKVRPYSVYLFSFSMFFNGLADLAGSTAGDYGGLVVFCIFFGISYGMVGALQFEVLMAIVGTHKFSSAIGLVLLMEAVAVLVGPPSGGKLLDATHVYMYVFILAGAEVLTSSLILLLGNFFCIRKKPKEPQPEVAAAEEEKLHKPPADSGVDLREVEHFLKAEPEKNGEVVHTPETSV
readout.type: IC50

// lookup IC50 for N#C/C(=C\c1ccc(O)cc1)C(=O)O [alpha-CYANO-4-HYDROXYCINNAMIC ACID]
> 150 µM

---

Target: Monocarboxylate transporter 1 (Rattus norvegicus, UniProt P53987)
Sequence (P53987 whole entry): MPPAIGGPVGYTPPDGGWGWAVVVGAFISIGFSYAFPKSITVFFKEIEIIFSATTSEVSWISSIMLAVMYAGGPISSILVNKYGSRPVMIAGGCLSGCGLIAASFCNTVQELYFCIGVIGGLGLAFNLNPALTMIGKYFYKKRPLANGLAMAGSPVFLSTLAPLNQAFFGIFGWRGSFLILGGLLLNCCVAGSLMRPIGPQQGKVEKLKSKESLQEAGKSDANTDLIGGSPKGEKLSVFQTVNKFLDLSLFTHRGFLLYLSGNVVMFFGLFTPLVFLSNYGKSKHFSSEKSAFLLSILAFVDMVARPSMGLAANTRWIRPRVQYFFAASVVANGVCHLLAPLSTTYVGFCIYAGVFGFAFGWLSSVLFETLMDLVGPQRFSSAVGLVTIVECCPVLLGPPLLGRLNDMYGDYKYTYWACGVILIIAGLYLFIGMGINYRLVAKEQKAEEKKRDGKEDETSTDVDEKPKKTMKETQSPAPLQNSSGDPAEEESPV
readout.type: pKi
Worth noting: pKi values are minus log10 of concentrations stated in mol/L.

// lookup pKi for `Cc1n[nH]c(C)c1Cc1sc2c(c1C(=O)N1C[C@@H](O)CO1)c(=O)n(C)c(=O)n2CC(C)C`
8.70

---

Target: Monocarboxylate transporter 1 (Homo sapiens)
Sequence (P53985 whole entry): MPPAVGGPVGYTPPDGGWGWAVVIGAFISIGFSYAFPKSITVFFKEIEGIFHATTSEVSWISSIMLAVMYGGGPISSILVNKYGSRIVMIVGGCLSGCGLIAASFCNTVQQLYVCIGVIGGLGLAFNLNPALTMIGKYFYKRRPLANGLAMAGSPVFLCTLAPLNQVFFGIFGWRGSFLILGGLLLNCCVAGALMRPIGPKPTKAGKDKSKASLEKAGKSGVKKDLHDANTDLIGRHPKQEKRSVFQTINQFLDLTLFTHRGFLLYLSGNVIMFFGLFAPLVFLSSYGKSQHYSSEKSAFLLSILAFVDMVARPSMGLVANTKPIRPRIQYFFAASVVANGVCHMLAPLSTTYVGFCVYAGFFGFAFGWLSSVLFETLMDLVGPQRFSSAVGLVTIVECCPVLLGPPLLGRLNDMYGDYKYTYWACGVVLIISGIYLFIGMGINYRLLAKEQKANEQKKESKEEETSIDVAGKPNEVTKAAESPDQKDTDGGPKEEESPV
Assay: Inhibition of MCT1 (unknown origin) assessed as reduction in [14C]lactate uptake incubated for 20 mins by liquid scintillation counting analysis
Field: IC50. Provide a value for each of the compounds that follow.
Field: numeric (nM). Do not append units.

// lookup IC50 for `CCCCCN(CCCCC)c1ccc(/C=C(\C#N)C(=O)O)c(OC)c1`
34

Lookup `COc1cc(N(Cc2ccccc2)Cc2ccccc2)ccc1/C=C(\C#N)C(=O)O`
37

Lookup `COc1cc(N2CCCC2)ccc1/C=C(\C#N)C(=O)O`
48

Lookup `COc1cc(N(CC(C)C)CC(C)C)ccc1/C=C(\C#N)C(=O)O`
11

Lookup `COc1cc(N2CCCCC2)ccc1/C=C(\C#N)C(=O)O`
25

Source of measurements: ChEMBL document CHEMBL5233245
